meta.source: patent US20240182592A1

Molecular target: T1, human BCMA on cells (human, UniProt Q02223 1-184)
T1 construct: whole, on cells; also called CHO-hBCMA cells; U266 cells
T1 sequence (looked up): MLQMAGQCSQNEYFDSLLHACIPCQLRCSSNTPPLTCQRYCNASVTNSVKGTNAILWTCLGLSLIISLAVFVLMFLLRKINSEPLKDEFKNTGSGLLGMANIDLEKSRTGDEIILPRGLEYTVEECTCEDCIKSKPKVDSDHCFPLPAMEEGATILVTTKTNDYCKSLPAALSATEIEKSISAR
Test: flow cytometry, CHO-hBCMA cells
QUANTITY_NAME: EC50

Some solved entries appear below for comparison.
1A11-Fc (antibody, human IgG1, V domains shown, also called anti-human BCMA VHH-Fc chimeric antibody 1A11-Fc) VH: QVQLVESGGGSVQAGGSLRLSCAASGVTFNSACMGWFRQAPGKEREGVARIETGYGGTVYADSVKGRFTISRDNAKNTVYLQMNSLKPEDTAMYYCAAKRSWCTPTWWHELDYNYWGQGTQVTVSS    2.08 nM
1A10-Fc (antibody, human IgG1, V domains shown, also called anti-human BCMA VHH-Fc chimeric antibody 1A10-Fc) VH: QVQLVESGGGSVQAGGSLRLSCAASGYSSNVACMAWYRQAPGKEREWVATIVADFGTTNYAASVKGRFTISQDNAKNTVYLQMNSLKPEDSAMYYCAATQRGGIDWCDEINYWGQGTLVTVSS    4.28 nM
1A1-Fc (antibody, human IgG1, V domains shown, Camel VHH fused to human IgG1 Fc; also called anti-human BCMA VHH-Fc chimeric antibody 1A1-Fc) VH: QVQLVESGGGSVQAGGSLRLSCTASGYTFRGWNKHWYRQAPGKERELVSSIFRDGKTAYTDSVKGRFTISQDNADATVYLQMNSLKPEDTAMYYCKYDLPGSGLPAFWGQGTLVTVSS    3.04 nM

Kindly consider the entry below.
query: Fill in the blank: the reported EC50 of 1B10-Fc (antibody, human IgG1, V domains shown, Camel VHH fused to human IgG1 Fc; also called anti-human BCMA VHH-Fc chimeric antibody 1B10-Fc) VH: EVQLVESGGGSVQAGGSLRLSCTASGYTFRGWNKHWYRQAPGKERELVSSIFRDGKTAYTDSVKGRFTISQDSADATVYLQMNSLKPEDTAMYYCKYDLPGSGLPEFWGQGTLVTVSS is ____.
result: 2.51 nM
